Target: Renin (Rattus norvegicus, UniProt P08424)
Sequence (P08424 whole entry): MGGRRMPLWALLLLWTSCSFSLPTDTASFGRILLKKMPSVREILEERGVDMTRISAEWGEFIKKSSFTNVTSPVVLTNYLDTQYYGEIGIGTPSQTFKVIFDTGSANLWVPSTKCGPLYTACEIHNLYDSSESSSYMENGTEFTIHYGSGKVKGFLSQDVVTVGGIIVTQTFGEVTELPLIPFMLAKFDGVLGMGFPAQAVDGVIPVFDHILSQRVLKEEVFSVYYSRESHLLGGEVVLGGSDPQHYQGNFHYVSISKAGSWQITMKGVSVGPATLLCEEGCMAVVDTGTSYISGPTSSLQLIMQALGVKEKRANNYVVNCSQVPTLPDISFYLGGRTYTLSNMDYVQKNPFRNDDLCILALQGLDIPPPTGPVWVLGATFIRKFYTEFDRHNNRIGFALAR
Test: Inhibitory concentration was measured against plasma renin from rat
pIC50: −log10 of the molar value.
EXPERIMENTAL READOUT: pIC50

Please review the following examples before continuing.
1. COC(=O)C(O)C(CC(C)C)NC(=O)C(Cc1c[nH]cn1)NC(=O)C(CC(=O)N(C)C)Cc1cccc2ccccc12 (centres undefined)	< 4.00
2. COC(=O)C(O)C(CC(C)C)NC(=O)C(Cc1c[nH]cn1)NC(=O)C(CC(=O)NCCc1ccccc1)Cc1cccc2ccccc12 (stereo in doubt)	< 4.00
3. CC(C)CC(NC(=O)C(Cc1cnc[nH]1)NC(=O)C(CC(=O)N1CCOCC1)Cc1cccc2ccccc12)C(O)CC(=O)OC(C)C (centres undefined)	< 4.00

Could you tell me which pIC50 is on file for CC(C)CC(NC(=O)C(Cc1c[nH]cn1)NC(=O)C(CC(=O)N1CCOCC1)Cc1cccc2ccccc12)C(O)C(=O)NC(C)C (centres undefined) ?
5.36

====

target: UniProt:P00797; test: Inhibitory concentration was measured against plasma renin from human; format: cell-free
Sequence (P00797 whole entry): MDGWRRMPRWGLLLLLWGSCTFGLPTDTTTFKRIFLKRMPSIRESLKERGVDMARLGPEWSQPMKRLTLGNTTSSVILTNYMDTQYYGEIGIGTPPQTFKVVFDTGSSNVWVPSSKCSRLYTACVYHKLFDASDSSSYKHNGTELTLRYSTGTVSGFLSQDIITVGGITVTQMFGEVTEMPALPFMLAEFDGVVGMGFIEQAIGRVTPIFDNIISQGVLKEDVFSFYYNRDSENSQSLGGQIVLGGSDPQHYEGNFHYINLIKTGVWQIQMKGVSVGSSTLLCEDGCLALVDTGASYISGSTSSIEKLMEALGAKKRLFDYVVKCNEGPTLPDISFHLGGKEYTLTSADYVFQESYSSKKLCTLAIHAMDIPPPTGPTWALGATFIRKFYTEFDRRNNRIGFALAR
Classify: MET when IC50 is strictly less than 80 nM; NOT MET when IC50 is not.

Reference set (4 entries):
1. COC(=O)C(O)C(CC(C)C)NC(=O)C(Cc1c[nH]cn1)NC(=O)C(CC(=O)NCCc1ccccc1)Cc1cccc2ccccc12 (stereo in doubt)	NOT MET
2. COC(=O)[C@H](O)C(CC(C)C)NC(=O)C(Cc1cnc[nH]1)NC(=O)C(CC(=O)NCCc1ccccc1)Cc1cccc2ccccc12 (single isomer, unassigned; (+))	MET
3. COC(=O)C(O)C(CC(C)C)NC(=O)C(Cc1c[nH]cn1)NC(=O)C(CC(=O)N(C)C)Cc1cccc2ccccc12 (stereo not given)	MET
4. CC(C)CC(NC(=O)C(Cc1cnc[nH]1)NC(=O)C(CC(=O)N1CCOCC1)Cc1cccc2ccccc12)C(O)CC(=O)OC(C)C (stereo not given)	MET

Lab note: next compound to report on.
Say whether its IC50 is strictly beneath 80 nM. Entry: CC(C)CC(NC(=O)C(Cc1c[nH]cn1)NC(=O)C(CC(=O)N1CCOCC1)Cc1cccc2ccccc12)C(O)C(=O)NC(C)C (stereo not given)
NOT MET

====

biological target: Renin (Canis familiaris); experiment: Inhibitory concentration was measured against plasma renin from dog
Attribute: pIC50
When answering, recall that pIC50 equals minus log10 of the concentration in mol/L, and write that number alone.

1) COC(=O)C(O)C(CC(C)C)NC(=O)C(Cc1c[nH]cn1)NC(=O)C(CC(=O)N(C)C)Cc1cccc2ccccc12 (centres undefined)	6.19
2) CC(C)CC(NC(=O)C(Cc1c[nH]cn1)NC(=O)C(CC(=O)N1CCOCC1)Cc1cccc2ccccc12)C(O)C(=O)NC(C)C (centres undefined)	5.96
3) COC(=O)C(O)C(CC(C)C)NC(=O)C(Cc1c[nH]cn1)NC(=O)C(CC(=O)NCCc1ccccc1)Cc1cccc2ccccc12 (stereo in doubt)	5.68

Now examine the next entry.
Could you tell me which pIC50 is on file for CC(C)CC(NC(=O)C(Cc1cnc[nH]1)NC(=O)C(CC(=O)N1CCOCC1)Cc1cccc2ccccc12)C(O)CC(=O)OC(C)C (centres undefined) ?
6.46

The origin of these recorded values is ChEMBL document CHEMBL1124071.
